# Assay Overview: chemical genetic growth profiling, strain panel (AID 1159580);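 also: tested at 20 µM; growth read once vehicle control cultures reached saturation at 30 °C; 1 = growth at the plate median or of vehicle wells; lower values mean less growth of the strain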
# Stated Conditions: S. cerevisiae deletion strains, growth OD, locus YER167W, strain BCK2, stronger effect = lower value
Among all 5,500 compounds or so, about 2,000 (36%) were called active. Inconclusive results (about 18%) are left out. This is one part of the list.
Test Readout: normalized growth

[
  {
    "Compound": "COc1cc(OC)c2c(OC)c(-c3ccc4c(c3)OCO4)c(=O)oc2c1",
    "normalized growth": "0.99 (inactive)"
  },
  {
    "Compound": "C[C@]12CC[C@@H](O)C[C@H]1CCc1ccccc12",
    "normalized growth": "1.02 (inactive)"
  },
  {
    "Compound": "C[C@]12[C@H](O)CC3C(CC[C@@H]4C[C@@H](O)CC[C@]34C)[C@@]1(O)CC[C@@H]2C1=CC(=O)OC1 (stereo not given in full)",
    "normalized growth": "1.02 (inactive)"
  },
  {
    "Compound": "CCCc1ncc(C[n+]2ccccc2C)c(N)n1",
    "normalized growth": "0.991 (inactive)"
  }
]

Now let's try a different one.
What value of measured normalized growth is listed for C[N+]12CCC(CC1)C(OC(=O)C(O)(c1ccccc1)c1ccccc1)C2 (stereo not given) ? 0.992 (inactive)

----------
# Assay Overview: chemical genetic growth profiling, strain panel (AID 1159580)
# Stated Conditions: S. cerevisiae deletion strains, growth OD, locus YAL030W, strain snc1, stronger effect = lower value
The whole screen tested about 5,500 compounds, of which about 2,000 (36%) were called active. Roughly 18% stayed inconclusive and do not appear here. This is one part of the list.
Test Readout: normalized growth
// response body must contain only the number

[
  {
    "Molecule": "NC(Cc1ccc(Cl)cc1)C(=O)O (configuration not stated)",
    "normalized growth": 0.993
  },
  {
    "Molecule": "COc1cc(O)c2c(c1)C(=O)c1cc(C)cc(O)c1C2=O",
    "normalized growth": 0.98
  },
  {
    "Molecule": "CC(=O)OC[C@@]1(O)C[C@@]23CCC4c5ccoc5CC[C@]4(C)C2CC[C@@H]1C3 (some centres not stated)",
    "normalized growth": 1.02
  },
  {
    "Molecule": "C=C[C@H]1CN2CC[C@H]1C[C@H]2[C@H](O)c1ccnc2ccccc12",
    "normalized growth": 0.997
  },
  {
    "Molecule": "COC1=CC23CCCN2CCc2cc4c(cc2C3C1O)OCO4 (configuration not stated)",
    "normalized growth": 1.02
  }
]

What value of measured normalized growth is listed for CN1CCCCC1c1ccc(-c2cccnc2)nc1 (configuration not stated) ? 0.984

Input CCCCCC/C=C\CCCCCCCc1cccc(O)c1C(=O)O 0.974

----------
# Assay Overview: chemical genetic growth profiling, strain panel (AID 1159580)
# Stated Conditions: S. cerevisiae deletion strains, growth OD, locus YOL012C, strain htz1
The whole screen tested about 5,500 compounds, of which about 2,000 (36%) were called active. Inconclusive results (about 18%) are left out. This is one part of the list.
Test Readout: normalized growth

[
  {
    "Compound": "N[C@@H](C(=O)N[C@@H]1C(=O)N2C(C(=O)O)=C(Cl)CS[C@H]12)c1ccccc1",
    "normalized growth": "1.44 (inactive)"
  }
]

Now let's try a different one.
What value of measured normalized growth is listed for CC(C)=CCC/C(C)=C/CO ? 0.813 (inactive)

----------
normalized growth by entry:
# Assay Overview: chemical genetic growth profiling, strain panel (AID 1159580)
# Stated Conditions: S. cerevisiae deletion strains, growth OD, locus YDR318W, strain mcm21, stronger effect = lower value
Out of some 5,500 compounds screened, about 2,000 (36%) were called active. Not shown: some 18% with an inconclusive outcome. The list shows a part of the results.
// response body must contain only the number

Solved cases below.
[
  {
    "Molecule": "COC(=O)C[C@H]1C(C)(C)[C@@H](OC(C)=O)[C@@H]2CC3=C4CC(=O)O[C@@H](c5ccoc5)[C@]4(C)CCC3[C@@]1(C)C2=O (stereo partly specified)",
    "normalized growth": 0.998
  },
  {
    "Molecule": "COC(=O)CC1C(C)(C)C(=O)C2CC3(O)C4=CC(=O)OC(c5ccoc5)C4(C)CCC3C1(C)C2=O (stereo unspecified)",
    "normalized growth": 0.977
  },
  {
    "Molecule": "COc1ccc(CC(=O)c2ccc(O)cc2O)cc1",
    "normalized growth": 0.912
  },
  {
    "Molecule": "CON",
    "normalized growth": 0.99
  },
  {
    "Molecule": "O=C1C=CC(=O)c2c(O)cccc21",
    "normalized growth": 0.962
  }
]

Now let's try a different one.
What value of measured normalized growth is listed for O=C1C=C(O)c2ccccc2C1=O ? 0.928

----------
# Assay Overview: chemical genetic growth profiling, strain panel (AID 1159580);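 also: tested at 20 µM; growth read once vehicle control cultures reached saturation at 30 °C; 1 = growth at the plate median or of vehicle wells; lower values mean less growth of the strain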
# Stated Conditions: S. cerevisiae deletion strains, growth OD, locus YNL153C, strain GIM3, stronger effect = lower value
The campaign covered roughly 5,500 compounds. About 2,000 (36%) were called active. Roughly 18% stayed inconclusive and do not appear here. This is one part of the list.
normalized growth under 1 gets Met, anything at or over 1 gets Not met.

The examples below pair each entry with its known result.
[
  {
    "Smiles Code": "O=C1C=CC(=O)c2c(O)cccc21",
    "Cat": "Met"
  },
  {
    "Smiles Code": "O=C(O)c1cc(O)c2c(c1)C(=O)c1cc(O)cc(O)c1C2=O",
    "Cat": "Met"
  }
]

Consider the record given below.
Input CC(C)[C@@H]1CC[C@@H](C)CC1=O ; condition: normalized growth strictly below 1. Does it hold? Not met

----------
normalized growth by entry:
# Assay Overview: chemical genetic growth profiling, strain panel (AID 1159580);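 also: tested at 20 µM; growth read once vehicle control cultures reached saturation at 30 °C; 1 = growth at the plate median or of vehicle wells; lower values mean less growth of the strain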
# Stated Conditions: S. cerevisiae deletion strains, growth OD, locus YER016W, strain bim1, stronger effect = lower value
Among all 5,500 compounds or so, about 2,000 (36%) were called active. Another 18% or so got no clear call; they are omitted. The list shows a part of the results.
// response body must contain only the number

[
  {
    "Compound": "O=C(O)CCC(=O)OC[C@@H](NC(=O)C(Cl)Cl)[C@H](O)c1ccc([N+](=O)[O-])cc1",
    "normalized growth": 0.988
  },
  {
    "Compound": "CC(=O)OCC1=C(C(=O)O)N2C(=O)[C@@H](NC(=O)CSc3ccncc3)[C@H]2SC1",
    "normalized growth": 1.03
  },
  {
    "Compound": "COC1=CC23CCCN2CCc2cc4c(cc2C3C1O)OCO4 (stereo not given)",
    "normalized growth": 1.02
  }
]

What value of measured normalized growth is listed for COc1cc([C@@H]2c3cc4c(cc3[C@H](O)[C@H]3COC(=O)[C@H]23)OCO4)cc(OC)c1OC ? 1

Input CCCCCC/C=C\CCCCCCCc1cccc(O)c1C(=O)O 0.976

Input COc1ccc(-c2c(O)c3c(OC)c4c(cc3oc2=O)OC(C)(C)C=C4)cc1 0.951

Input NC(=NCCCCCCN=C(N)N=C(N)Nc1ccc(Cl)cc1)N=C(N)Nc1ccc(Cl)cc1 0.058

Input O=C(Nc1ccc([N+](=O)[O-])cc1Cl)c1cc(Cl)ccc1O 0.772

Input CN1CCC[C@H]1c1cccnc1 1.02

Input CCCCCCCCCCCCCCCC(=O)OC[C@H](NC(=O)C(Cl)Cl)[C@H](O)c1ccc([N+](=O)[O-])cc1 1.02

----------
# Assay Overview: chemical genetic growth profiling, strain panel (AID 1159580);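 also: tested at 20 µM; growth read once vehicle control cultures reached saturation at 30 °C; 1 = growth at the plate median or of vehicle wells; lower values mean less growth of the strain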
# Stated Conditions: S. cerevisiae deletion strains, growth OD, locus YJL095W, strain BCK1, stronger effect = lower value
The whole screen tested about 5,500 compounds, of which about 2,000 (36%) were called active. Inconclusive results (about 18%) are left out. The list shows a part of the results.
normalized growth under 0.8 gets satisfied, anything at or over 0.8 gets not satisfied.

The examples below pair each entry with its known result.
[
  {
    "Compound": "O=C(OCCNc1ccc([N+](=O)[O-])cn1)c1ccc([N+](=O)[O-])o1",
    "Cat": "satisfied"
  },
  {
    "Compound": "COC1=C(OC)C(=O)C(CCCCCCCCCCO)=C(C)C1=O",
    "Cat": "not satisfied"
  },
  {
    "Compound": "CCOC(=O)c1cnc(-c2ccccn2)[nH]c1=O",
    "Cat": "satisfied"
  },
  {
    "Compound": "O=c1c(O)c(-c2ccc(O)cc2)oc2ccccc12",
    "Cat": "not satisfied"
  }
]

Input N/C(=N/OCc1c(F)cccc1Cl)c1ccc(Cl)cc1 ; condition: normalized growth strictly below 0.8. Does it hold? not satisfied

Input O=C1C=CC(=O)c2ccccc21 satisfied

Input O=[N+]([O-])c1cc(C(F)(F)F)cc([N+](=O)[O-])c1Oc1ccc(Cl)c(Cl)c1 satisfied
